These measurements were taken from PubChem BioAssay (NCATS).

Experiment: Primary qHTS for inhibitors of nuclear receptor binding SET domain protein 2 (NSD2) in an RCH-ACV wild type WT cells (2C) (AID 1645877); note: % is set by controls: 0 for no effect and ±100 for the full control effect; nearly all actives have a fitted effect of over 70% in size
Details: RCH-ACV (leukaemia line) NSD2 WT (2C) viability, CellTiter-Glo, 72 h; series mostly up to 44.9 µM
Inconclusive results are not listed. Calls of active or inactive are those of the source. Calls come from the whole dose curve; as a rule, active = well fitted inhibition curve with a large enough effect; inconclusive = small, poorly fitted or top-dose-only effect; inactive = no such curve, though single readings can be large or run the other way.
This section presents compounds with their documented activity change, negative = cell killing values.

Reference set, count: 5
Compound	activity change, negative = cell killing
CC(=O)N[C@H]1[C@H](O[C@H]2CC[C@@]3(C)C(CC[C@]4(C)C3CC=C3C5CC(C)(C)CC[C@]5(C(=O)O)[C@H](O)C[C@]34C)C2(C)C)O[C@H](CO[C@@H]2OC[C@H](O)[C@H](O)[C@H]2O[C@@H]2OC[C@@H](O)[C@H](O)[C@H]2O)[C@@H](O)[C@@H]1O (stereo partly drawn)	3.06% [at 9.23 µM] (inactive)
CC(C)=CCC[C@](C)(O[C@@H]1O[C@H](CO)[C@@H](O)[C@H](O)[C@H]1O)[C@H]1CC[C@]2(C)[C@@H]1[C@H](O)CC1[C@@]3(C)CC[C@H](O)C(C)(C)C3[C@@H](O[C@@H]3O[C@H](CO)[C@@H](O)[C@H](O)[C@H]3O[C@@H]3OC[C@@H](O)[C@H](O)[C@H]3O)C[C@]12C (stereo partly drawn)	-29.2% [at 9.23 µM] (inactive)
COC1CC(OC2CCC3(C)C(=CCC4C3C(OC(C)=O)C(OC(=O)/C=C/c3ccccc3)C3(C)C(C(C)O)CCC43O)C2)OC(C)C1OC1CC(OC)C(OC2OC(C)C(OC3OC(CO)C(O)C(O)C3O)C(OC)C2O)C(C)O1 (stereo not drawn)	-17.6% [at 9.23 µM] (inactive)
CC1OC(OCC2OC(OC3CCC4(C)C(CCC5(C)C4CC=C4C6CC(C)(C)CCC6(C(=O)OC6OC(CO)C(O)C(O)C6O)CCC45C)C3(C)CO)C(O)C(O)C2O)C(O)C(O)C1O (stereo not drawn)	-0.623% [at 9.23 µM] (inactive)
CC1(C)CC[C@]2(CO[C@@H]3O[C@H](CO)[C@@H](O)[C@H](O)[C@H]3O)[C@@H](O)C[C@]3(C)C(=CCC4[C@@]5(C)CC[C@H](O[C@@H]6O[C@H](CO[C@@H]7O[C@H](CO[C@@H]8OC[C@@H](O)[C@H](O)[C@H]8O)[C@@H](O)[C@H](O)[C@H]7O)[C@@H](O)[C@H](O)[C@H]6O)C(C)(C)C5CC[C@]43C)[C@@H]2C1 (stereo partly drawn)	-16% [at 9.23 µM] (inactive)

-- ask Recorded activity change, negative = cell killing for CC(=O)N[C@H]1[C@H](O[C@H]2CC[C@@]3(C)C(CC[C@]4(C)C3CC=C3[C@@H]5CC(C)(C)CC[C@]5(C(=O)OC5OCC(O)C(O)C5O)CC[C@]34C)C2(C)C)O[C@H](COC2OC(C)C(O)C(OC3OC(C)C(O)C(O)C3O)C2O)[C@@H](O)[C@@H]1O (stereo partly drawn) , please?
-- reply 1.82% [at 9.23 µM] (inactive)

-- ask Recorded activity change, negative = cell killing for C[C@@H]1O[C@@H](O[C@H]2[C@H](O[C@H]3[C@H](O[C@H]4CC[C@@]5(C)C(CC[C@]6(C)C5CC=C5[C@@H]7CC(C)(C)C[C@@H](O)[C@]7(C)CC[C@]56C)[C@@]4(C)CO)O[C@H](C(=O)O)[C@@H](O)[C@@H]3O)OC[C@H](O)[C@@H]2O)[C@H](O)[C@H](O)[C@H]1O (stereo partly drawn) , please?
-- reply -3.15% [at 9.23 µM] (inactive)

-- ask Recorded activity change, negative = cell killing for C1CCC[C@H]2CCCN3CC[C@@H](CCCCCC[C@@H]4CCCN5CC[C@@H](CC1)O[C@@H]45)O[C@@H]23 , please?
-- reply -1.13% [at 0.177 µM] (inactive)

###

Target: Nicotinamide N-methyltransferase (Homo sapiens) (UniProt P40261)
Sequence (P40261 whole entry, looked up): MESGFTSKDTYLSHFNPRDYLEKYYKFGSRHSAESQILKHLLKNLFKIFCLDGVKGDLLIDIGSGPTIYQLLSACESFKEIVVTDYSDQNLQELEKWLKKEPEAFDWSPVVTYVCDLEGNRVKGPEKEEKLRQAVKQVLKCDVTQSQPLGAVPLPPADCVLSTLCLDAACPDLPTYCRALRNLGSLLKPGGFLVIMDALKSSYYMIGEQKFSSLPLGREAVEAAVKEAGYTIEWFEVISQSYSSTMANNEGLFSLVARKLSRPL
Assay: Confirmatory Screen for Target Class Profiling of Small Molecule Inhibitors of Methyltransferases (AID 1745852)
Conditions: MTase-Glo luminescence, SAH detection, recombinant enzyme; measured here: NNMT max response; stronger effect = lower value
Parameter: activity (%)
Express it in %; write the number only.

Reference set, count: 5
Compound	Parameter	Reported Result
CC1=C(C(=O)OCc2ccccc2)C(c2ccc(-c3ccccc3)cc2)NC(=O)N1CCCCCC(=O)O (stereo not drawn)	activity	-35.4
COc1cc(/C=C/C(=O)OC[C@H]2O[C@@](CO)(O[C@H]3O[C@H](CO)[C@@H](O)[C@H](O)[C@H]3O)[C@@H](OC(=O)/C=C/c3ccc(O)c(OC)c3)[C@@H]2O)ccc1O	activity	-6.08
COc1cc(NC(=O)Nc2cccc(CNC(=O)O[C@H]3CCOC3)c2)ccc1-c1cnco1	activity	-9.19
N#Cc1ccc(-c2cnc3[nH]cc(NC(=O)c4cccnc4)c3c2)cc1	activity	2.51
CC1(C)CC[C@]2(C(=O)O[C@@H]3O[C@H](CO)[C@@H](O)[C@H](O)[C@H]3O)CC[C@]3(C)C(=CCC4[C@@]5(C)C[C@@H](O)[C@H](O)C(C)(C)C5CC[C@]43C)C2[C@@H]1O (stereo partly drawn)	activity	-0.101

-- ask Recorded activity for COc1cc2nc(N3CCCC3)nc(NCCCCCN3CCCC3)c2cc1OC , please?
-- reply -30.1

-- ask Recorded activity for C=C(F)c1sc(CNCCCNc2cc(=O)c3ccccc3[nH]2)c(C)c1Br , please?
-- reply -33.7

-- ask Recorded activity for Cc1cc(O)c(-c2ccc([C@@H](C)CN(C)C)cc2)c2c1[nH]c(=O)c1sccc12 , please?
-- reply -64.6

-- ask Recorded activity for COC(=O)C1=CO[C@@H](O[C@@H]2O[C@H](CO)[C@@H](O)[C@H](O)[C@H]2O)[C@H]2[C@@H]1CC(OC)O[C@@H]2C (stereo partly drawn) , please?
-- reply -1.72

-- ask Recorded activity for NC[C@@](O)(c1ccc(Cl)cc1)c1ccc(-c2cn[nH]c2)cc1 , please?
-- reply -0.549

-- ask Recorded activity for CCN(CC)c1ccc2c(O)c(C=Nc3ccc(CC(=O)O)c(-c4c5c(nc6ccccc46)CCC(C(=O)NN)C5)c3)c(=O)oc2c1 (stereo not drawn) , please?
-- reply -14

-- ask Recorded activity for CN1CCN(C2CCC(n3cc(-c4ccc(Oc5ccccc5)cc4)c4c(N)ncnc43)CC2)CC1 (stereo not drawn) , please?
-- reply -13.2

-- ask Recorded activity for COC(=O)C1=CO[C@@H](O[C@@H]2O[C@H](CO[C@@H]3O[C@H](COC(=O)/C=C/c4cc(OC)c(O)c(OC)c4)[C@@H](O)[C@H](O)[C@H]3O)[C@@H](O)[C@H](O)[C@H]2O)[C@@H]2C(CO)=CC[C@H]12 , please?
-- reply -1.52

-- ask Recorded activity for c1cn2cc(-c3ccc4cn[nH]c4c3)nc(Nc3ccc(N4CCOCC4)cc3)c2n1 , please?
-- reply -49.6

-- ask Recorded activity for C=C(C)C(=O)OC1CC2(C)OC(=CC2=O)C(=C)CC2OC(=O)C(COC)C12 (stereo not drawn) , please?
-- reply -5.26

-- ask Recorded activity for CCc1c(-c2ccccc2)c(-c2ccccc2)nn1-c1ccccc1-c1cccc(OCC(=O)O)c1 , please?
-- reply -56

-- ask Recorded activity for CC(C)CCC1(O)C(=O)C(C)(C)C(O[C@@H]2O[C@H](CO)[C@@H](O)[C@H](O)[C@H]2O)C(C)(C)C1O (stereo partly drawn) , please?
-- reply -3.79

###

Tested on: Tov-21-G
Assay: Primary qHTS to identify gynecologic anti-cancer compounds using libraries of approved drugs and bioactive compounds (AID 1345084); note: % is set by controls: 0 for no effect and ±100 for the full control effect; nearly all actives have a fitted effect of over 55% in size
Details: Gynecologic cancer cell panel viability, ATPlite luminescence, 48 h; series mostly up to 57.5 µM
Records with an inconclusive call do not appear. Activity calls are given as the source filed them. The call rests on the fitted dose curve; in most records, active means well fitted cell-killing curve with a large enough effect; inconclusive means small, poorly fitted or top-dose-only effect, or effect the other way; inactive means flat fitted curve, though single readings scatter.
Your reply should match one of these outcome classes. active, inactive

Molecule	Label Class
CO[C@H]1O[C@@H]2O[C@]3(C)CC[C@H]4[C@H](C)CC[C@@H]([C@H]1C)[C@@]24OO3	inactive
C/C(=C/CO)CC[C@@H]1[C@@](C)(O)CCC2C(C)(C)CCC[C@]21C (stereo partly specified)	inactive
O=C(CO)[C@@H](O)[C@H](O[C@@H]1O[C@H](CO)[C@H](O)[C@H](O)[C@H]1O)[C@H](O)CO	inactive

-- ask Please share the test call associated with Cc1cc(Cl)ccc1COc1ccnn1-c1cc(C(=O)O)ccn1 .
-- reply inactive

-- ask Please share the test call associated with CC(=O)NC1C(OC(C)(C)C2CCC3(C)C=C(C4CCC5C4(C)CC(O)C4OC(C(C)(C)O)CCC45C)CCC3O2)OC(CO)C(O)C1O (stereo unspecified) .
-- reply inactive

-- ask Please share the test call associated with COc1ccc(/C=C/C(=O)O[C@H]2[C@H](O[C@H]3[C@@H]4C=CO[C@@H](O[C@@H]5O[C@H](CO)[C@@H](O)[C@H](O)[C@H]5O)[C@@H]4[C@@]4(CO)O[C@@H]34)O[C@@H](C)[C@H](O)[C@H]2OC(C)=O)cc1 .
-- reply inactive
